- STUDY TARGET: ABL (Homo sapiens (Human))
- Sequence (P00519 whole entry, looked up): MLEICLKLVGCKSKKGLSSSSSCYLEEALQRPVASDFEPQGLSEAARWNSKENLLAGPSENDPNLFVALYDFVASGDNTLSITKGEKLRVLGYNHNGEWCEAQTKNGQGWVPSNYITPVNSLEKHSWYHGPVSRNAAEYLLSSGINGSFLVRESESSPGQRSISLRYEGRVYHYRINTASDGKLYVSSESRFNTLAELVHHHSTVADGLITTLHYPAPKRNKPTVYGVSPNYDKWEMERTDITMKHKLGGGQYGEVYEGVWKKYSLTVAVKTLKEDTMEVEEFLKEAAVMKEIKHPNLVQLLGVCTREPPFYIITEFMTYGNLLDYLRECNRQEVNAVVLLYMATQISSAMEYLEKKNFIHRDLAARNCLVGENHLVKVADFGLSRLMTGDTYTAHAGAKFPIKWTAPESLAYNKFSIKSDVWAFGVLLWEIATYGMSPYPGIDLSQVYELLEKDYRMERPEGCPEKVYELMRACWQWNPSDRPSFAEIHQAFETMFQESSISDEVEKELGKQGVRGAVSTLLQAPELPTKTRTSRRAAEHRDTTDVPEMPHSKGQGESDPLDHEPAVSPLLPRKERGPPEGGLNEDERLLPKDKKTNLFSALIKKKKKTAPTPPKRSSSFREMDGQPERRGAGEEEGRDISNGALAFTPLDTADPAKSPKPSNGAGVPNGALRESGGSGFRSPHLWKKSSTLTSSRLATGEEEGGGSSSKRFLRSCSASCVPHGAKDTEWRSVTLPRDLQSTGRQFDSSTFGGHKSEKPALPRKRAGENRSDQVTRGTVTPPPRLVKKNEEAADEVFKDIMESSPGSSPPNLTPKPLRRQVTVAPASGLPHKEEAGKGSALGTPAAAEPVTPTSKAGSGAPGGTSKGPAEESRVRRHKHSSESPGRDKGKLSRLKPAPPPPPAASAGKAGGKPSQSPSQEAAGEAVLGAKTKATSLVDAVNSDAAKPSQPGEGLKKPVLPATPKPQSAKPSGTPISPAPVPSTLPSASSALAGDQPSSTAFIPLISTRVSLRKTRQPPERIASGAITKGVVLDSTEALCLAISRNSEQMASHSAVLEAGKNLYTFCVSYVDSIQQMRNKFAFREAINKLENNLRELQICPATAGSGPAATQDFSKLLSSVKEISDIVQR
- Type: biochemical
VALUE TYPE: IC50

### Prompt Could you please provide reported IC50 for Nc1ncnc2c1c(Cc1cccc3ccccc13)nn2CC1CCNCC1 [Compound 5h] ? Thanks!
### Response > 20 µM

* * *

Below is a list of entries, each paired with its recorded inhibition at 3 µM value.
- STUDY TARGET: PfCDPK1 (Plasmodium falciparum (isolate 3D7), UniProt P62344)
- ASSAY TEXT: biochemical
- DETAILS: read-out: PfCDPK1 (% inhibition @ 3 uM)
Write it as a number; the unit % goes unstated.

Look over these answered cases.
# MOLECULE, MEASUREMENT UNITS, inhibition at 3 µM
rows = [
    ("Cc1cccc(-c2nn(C(C)C)c3ncnc(N)c23)c1 [Compound 7g]", "%", 72),
    ("COc1ccc(-c2nn(C(C)C)c3ncnc(N)c23)cc1 [Compound 7j]", "%", 87),
    ("CSc1cccc(-c2nn(C(C)C)c3ncnc(N)c23)c1 [Compound 7ab]", "%", 85),
    ("COc1cc(-c2nn(C(C)C)c3ncnc(N)c23)cc(OC)c1OC [Compound 7l]", "%", 85),
]

Now consider a different molecule.
### Prompt Provide measured inhibition at 3 µM value, entry: CC(C)(C)n1nc(-c2ccc(-c3nn(C(C)(C)C)c4ncnc(N)c34)cc2)c2c(N)ncnc21 [Compound 141]
### Response 92
